Values compiled from the RNAGym collection of RNA variant scans (doi:10.1093/molbev/msab373).

B1: Azoarcus group I ribozyme (parent)
chain: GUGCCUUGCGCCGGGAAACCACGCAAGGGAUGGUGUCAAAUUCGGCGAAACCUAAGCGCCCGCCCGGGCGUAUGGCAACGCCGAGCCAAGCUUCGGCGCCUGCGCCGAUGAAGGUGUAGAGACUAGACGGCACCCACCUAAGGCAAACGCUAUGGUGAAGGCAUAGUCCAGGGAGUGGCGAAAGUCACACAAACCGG

Variants of: B1
Assay Protocol: reverse-splicing fitness (ratio to wild type); higher = more active; in vitro selection; Mg2+ level not given
Please go through the items and note down their reverse-splicing fitness.
Numbers only.

Here are 2 variants. What values of reverse-splicing fitness were reported for them?
1. C82A A111U A120C A145C C150A C169G U176G
2. C82G A120U C150G U176A

Response:
1: 0.0101; 2: 0.0062

Below are 4 variants. Give each one its reverse-splicing fitness.
1. C82G A111G A120U A145G C150G C169A U176G
2. A111U A120C A145G C150A
3. C82A A111G A145U U176C
4. C82U A120U A145U C169U

Response:
[0.00448, 0.0986, 0.249, 0.00594]

State the recorded reverse-splicing fitness for every item in the following list.
1. C82G A111G A120U A145G C150A U176C
2. C82U A111G A120U C150U C169G U176G
3. C82U A111C A120G C150G C169U U176C
4. C82U A111C A120G A145C C150A C169A
5. C82A A111C A120G C150A C169A U176A
6. C82G A111C A120G C150U C169A U176A

Response:
[0.00919, 0.00216, 0.0121, 0.00641, 0.0182, 0.0141]

For every record below, what is its reverse-splicing fitness?
1. C82U A111G A120C C150U C169G
2. C82U A111C A120U C150A C169G U176G
3. A111G A120C A145G C169A U176C
4. C82A A111C A120U A145U C150A C169A U176G
5. A111C A120C C150U C169A U176G
6. A120G A145U C169U
7. C82G A111C A120C A145G C169U U176C
8. C82A A111U A145G C150A C169G U176C

Response:
0.00986
0.00237
0.0197
0.00272
0.00561
0.446
0.0158
0.027

Prompt: Quick one: reverse-splicing fitness for A111G A120C A145C C169A U176G ?
Response: 0.00335
